Can you tell me inhibition of growth at 100 µM for the items I'm about to list?
- Tested on: A-375
- Assay Method Text: Cytotoxicity against human A375 cells assessed as reduction in cell growth at 100 uM incubated for 72 hrs by MTT assay relative to control
- Format: functional
- Condition: A-375, 72 h, read-out: GI
Record the value in %, omitting the unit from your answer.

**Q:** What measured inhibition of growth at 100 µM is associated with "Cc1cccc(/C(N)=N/NC(=S)N2CCSCC2)n1" on A-375?
**A:** 77.4

**Q:** Subsequent entry: "Cc1cccc(/C(N)=N/NC(=S)N2CCCCC2)n1"
**A:** 85.7

**Q:** Next molecule up: "N/C(=N\NC(=S)N1CCCC1)c1ccc(F)cn1"
**A:** 86.6

**Q:** Try "Cc1ccnc(/C(N)=N/NC(=S)N2CCSCC2)c1" next.
**A:** 89.9

**Q:** # iterate: "N/C(=N\NC(=S)N1CCOCC1)c1ccccn1"
**A:** 14

**Q:** Next molecule up: "Cc1ccnc(/C(N)=N/NC(=S)N2CCCCCC2)c1"
**A:** 77

**Q:** Similarly, "Cc1ccnc(/C(N)=N/NC(=S)N2CCOCC2)c1" ?
**A:** 90.6

**Q:** Please give the result for "Cc1ccnc(/C(N)=N/NC(=S)N2CCCCC2)c1" too.
**A:** 85.6

**Q:** Query "Cc1cccc(/C(N)=N/NC(=S)N2CCOCC2)n1" next
**A:** 83.8

**Q:** Also need "N/C(=N\NC(=S)N1CCN(c2ccccn2)CC1)c1ccccn1" , thanks.
**A:** 86.8

**Q:** What about this molecule? "N/C(=N\NC(=S)N1CCSCC1)c1ccccn1"
**A:** 87.8
